Tested on: Mycobacterium tuberculosis H37Rv pMSp12::GFP
TEST_DESCRIPTION: microbe, parasite or virus in culture
Assay type: cell-based
ASSAY_SETUP: Mycobacterium tuberculosis, H37RV, 168 h, Mtb H37Rv, protein-poor media, 7 days; read-out: MIC90 7H9/CAS/GLU/Tx 7 Days
Kindly supply the reported MIC90 values for the records listed here.
Lab book: enter the figure in µM, no units written.

In: Name the recorded MIC90 for O=C(NCCCNc1ccnc2cc(Cl)ccc12)Nc1nc2ccc(Cl)cc2s1 .
Out: 4.39

In: // lookup MIC90 for O=C(NCCCCCCNc1ccnc2cc(Cl)ccc12)Nc1nc2ccc(Br)cc2s1
Out: 8.76

In: Find the recorded MIC90 belonging to CC(CNc1ccnc2cc(Cl)ccc12)NC(=O)Nc1nc2ccc(C(F)(F)F)cc2s1 (stereo not drawn) and report it.
Out: 0.97

In: Sample O=C(NCCCCCCNc1ccnc2cc(Cl)ccc12)Nc1nc2ccc(Cl)cc2s1 — what was its MIC90?
Out: 7.6

In: I'd like to know its MIC90. The compound in question is O=C(NCCCNc1ccnc2cc(Cl)ccc12)Nc1nc2ccc(Br)cc2s1
Out: 15.9

In: Recorded MIC90 of CC(CNc1ccnc2cc(Cl)ccc12)NC(=O)Nc1nc2ccc(Cl)cc2s1 (stereo not drawn) , please.
Out: 2.33

In: So what does the record say about MIC90 for O=C(NCCCCNc1ccnc2cc(Cl)ccc12)Nc1nc2ccc(Cl)cc2s1 ?
Out: 7.46

* * *

Exercise: state measured MIC90 for each of the molecules provided.
Test system: Mycobacterium tuberculosis H37Rv pMSp12::GFP
TEST_DESCRIPTION: microbe, parasite or virus in culture
Format: cell-based
ASSAY_SETUP: Mycobacterium tuberculosis, H37RV, 168 h, Mtb H37Rv, protein-poor media, 7 days; read-out: MIC90 7H9/CAS/GLU/Tx 7 Days
Write the answer as a number in µM, unit excluded.

In: # input molecule: O=C(NCCCNc1ccnc2cc(Cl)ccc12)Nc1nc2ccc(C(F)(F)F)cc2s1 ; wanted: its MIC90
Out: 7.81

In: // returns reported MIC90 for input O=C(NNc1ccnc2cc(Cl)ccc12)Nc1nc2ccc(C(F)(F)F)cc2s1
Out: 4.94

In: Would you kindly share the measured MIC90 for O=C(NNc1ccnc2cc(Cl)ccc12)Nc1nc2ccccc2s1 ?
Out: 21

In: Any idea what MIC90 was measured for CC(CNc1ccnc2cc(Cl)ccc12)NC(=O)Nc1nc2ccc(Br)cc2s1 (stereo not drawn) ?
Out: 8.19

In: Quick one: MIC90 of Cc1ccc2nc(NC(=O)NCCCNc3ccnc4cc(Cl)ccc34)sc2c1 ?
Out: 31.2

* * *

Would you kindly list melting point for each of these compounds?

In: What value of melting point has been recorded for this entry: CC(CNc1ccnc2cc(Cl)ccc12)NC(=O)Nc1nc2ccc(Br)cc2s1 (stereo not drawn)
Out: 246 to 248 °C

In: I have this compound here, Cc1ccc2nc(NC(=O)NCCCNc3ccnc4cc(Cl)ccc34)sc2c1 , and I need its recorded melting point.
Out: 234 to 239 °C

In: So what's the measured melting point for this one? O=C(NCCCCCCNc1ccnc2cc(Cl)ccc12)Nc1nc2ccc(Cl)cc2s1
Out: 239 to 241 °C

In: Item under review: CC(CNc1ccnc2cc(Cl)ccc12)NC(=O)Nc1nc2ccc(Cl)cc2s1 (stereo not drawn) . Reported melting point?
Out: 301 to 304 °C

In: Query: melting point; subject: O=C(NCCCNc1ccnc2cc(Cl)ccc12)Nc1nc2ccc(Cl)cc2s1
Out: 286 to 288 °C

In: # input compound: O=C(NCCCCCCNc1ccnc2cc(Cl)ccc12)Nc1nc2ccc(F)cc2s1 ; wanted: its melting point
Out: 256 to 259 °C

In: // melting point lookup, key: O=C(NCCNc1ccnc2cc(Cl)ccc12)Nc1nc2ccc(C(F)(F)F)cc2s1
Out: 249 to 251 °C

In: // lookup melting point for O=C(NCCCNc1ccnc2cc(Cl)ccc12)Nc1nc2ccc(C(F)(F)F)cc2s1
Out: 198 to 200 °C

In: melting point for O=C(NCCCNc1ccnc2cc(Cl)ccc12)Nc1nc2ccc(F)cc2s1 ?
Out: 241 to 243 °C

* * *

TEST_DESCRIPTION: MTT cytotoxicity assay
ASSAY_SETUP: human
PARAMETER: viability at 24 h (%)
Express your answer in %, writing the number without its unit.

In: So what does the record say about viability at 24 h for CC(CNc1ccnc2cc(Cl)ccc12)NC(=O)Nc1nc2ccc(Cl)cc2s1 (centres unmarked) [Compound 6y] ?
Out: 78

In: # get_value(readout='viability at 24 h', item= O=C(NCCCNc1ccnc2cc(Cl)ccc12)Nc1nc2ccc(Br)cc2s1 [Compound 6m] )
Out: 100

In: I would be grateful if you could share the reported viability at 24 h for O=C(NCCCCCCNc1ccnc2cc(Cl)ccc12)Nc1nc2ccc(Br)cc2s1 [Compound 6s] .
Out: 76

In: // lookup viability at 24 h for CC(CNc1ccnc2cc(Cl)ccc12)NC(=O)Nc1nc2ccc(C(F)(F)F)cc2s1 (centres unmarked) [Compound 6u]
Out: 100

In: Query: viability at 24 h; subject: O=C(NCCCCNc1ccnc2cc(Cl)ccc12)Nc1nc2ccc(Cl)cc2s1 [Compound 6o]
Out: 30

In: // viability at 24 h lookup, key: O=C(NCCCCCCNc1ccnc2cc(Cl)ccc12)Nc1nc2ccc(F)cc2s1 [Compound 6t]
Out: 92

In: I'd like to know its viability at 24 h. The molecule in question is O=C(NCCCNc1ccnc2cc(Cl)ccc12)Nc1nc2ccc(C(F)(F)F)cc2s1 [Compound 6i]
Out: 87

In: Could you share which viability at 24 h value was measured for O=C(NCCCNc1ccnc2cc(Cl)ccc12)Nc1nc2ccc(Cl)cc2s1 [Compound 6j] ?
Out: 86

* * *

TEST_DESCRIPTION: MTT cytotoxicity assay
ASSAY_SETUP: human, IC20, HepG2, 24 h, MTT; concentration at which cells retain 80% viability, extrapolated from the dose–response curve
IC20 at 24 h strictly less than 7 µM = 1. Otherwise 0.

In: Is it true that IC20 at 24 h reported for O=C(NCCNc1ccnc2cc(Cl)ccc12)Nc1nc2ccc(Br)cc2s1 is less than 7 µM?
Out: 0

In: Given Cc1ccc2nc(NC(=O)NCCCNc3ccnc4cc(Cl)ccc34)sc2c1 , is recorded IC20 at 24 h strictly lower than 7 µM?
Out: 0

In: Answer whether the molecule O=C(NCCCCNc1ccnc2cc(Cl)ccc12)Nc1nc2ccc(Cl)cc2s1 has IC20 at 24 h strictly less than 7 µM
Out: 1

In: is_below(IC20 at 24 h, 7 µM) for O=C(NCCCCCCNc1ccnc2cc(Cl)ccc12)Nc1nc2ccc(F)cc2s1 ?
Out: 0

In: Dear reviewer, please state whether Cc1ccc2nc(NC(=O)NC(C)CNc3ccnc4cc(Cl)ccc34)sc2c1 (stereo not drawn) has IC20 at 24 h strictly beneath 7 µM.
Out: 0

In: Threshold test, IC20 at 24 h < 7 µM: O=C(NCCCNc1ccnc2cc(Cl)ccc12)Nc1nc2ccccc2s1
Out: 0

In: Lab log: compare recorded IC20 at 24 h with 7 µM; is it strictly lower for O=C(NCCCNc1ccnc2cc(Cl)ccc12)Nc1nc2ccc(Cl)cc2s1 ?
Out: 0

In: Lab log: compare recorded IC20 at 24 h with 7 µM; is it strictly lower for O=C(NNc1ccnc2cc(Cl)ccc12)Nc1nc2ccccc2s1 ?
Out: 0

In: Does the reported IC20 at 24 h of the following molecule sit strictly below 7 µM? O=C(NCCCNc1ccnc2cc(Cl)ccc12)Nc1nc2ccc(C(F)(F)F)cc2s1
Out: 0

In: Threshold test, IC20 at 24 h < 7 µM: O=C(NCCCCCCNc1ccnc2cc(Cl)ccc12)Nc1nc2ccc(Cl)cc2s1
Out: 1

In: Determine whether this molecule shows IC20 at 24 h lower than 7 µM (ties excluded): CC(CNc1ccnc2cc(Cl)ccc12)NC(=O)Nc1nc2ccc(Cl)cc2s1 (stereo not drawn)
Out: 1

In: Is it true that IC20 at 24 h reported for O=C(NCCCNc1ccnc2cc(Cl)ccc12)Nc1nc2ccc(Br)cc2s1 is less than 7 µM?
Out: 0

In: Does CC(CNc1ccnc2cc(Cl)ccc12)NC(=O)Nc1nc2ccc(Br)cc2s1 (stereo not drawn) have IC20 at 24 h strictly under 7 µM?
Out: 1

In: # check: IC20 at 24 h < 7 µM for CC(CNc1ccnc2cc(Cl)ccc12)NC(=O)Nc1nc2ccc(C(F)(F)F)cc2s1 (stereo not drawn)
Out: 1

* * *

So I've got a bunch of molecules here, and I need their melting point values.

In: Consider the molecule shown here: O=C(NCCNc1ccnc2cc(Cl)ccc12)Nc1nc2ccc(Cl)cc2s1 What is its recorded melting point?
Out: 244 to 245 °C

In: Suppose we examine the molecule CC(CNc1ccnc2cc(Cl)ccc12)NC(=O)Nc1nc2ccc(F)cc2s1 (stereo not drawn) ; what melting point value has been reported?
Out: 228 to 230 °C

In: For O=C(NCCCNc1ccnc2cc(Cl)ccc12)Nc1nc2ccc(Br)cc2s1 , what is its reported melting point?
Out: 254 to 257 °C

In: Endpoint output: melting point of Cc1ccc2nc(NC(=O)NC(C)CNc3ccnc4cc(Cl)ccc34)sc2c1 (stereo not drawn) . Value?
Out: 229 to 231 °C

In: Need melting point, item O=C(NCCCCNc1ccnc2cc(Cl)ccc12)Nc1nc2ccc(F)cc2s1
Out: 256 to 259 °C

In: Name the recorded melting point for O=C(NCCCCCCNc1ccnc2cc(Cl)ccc12)Nc1nc2ccc(Br)cc2s1 .
Out: 192 to 194 °C

Origin of the recorded values: paper PMC9146500
